The measured values listed here are drawn from the supplement of paper PMC10201428.

B1: library; a variant is named by its letters at N, in order (parent)
chain: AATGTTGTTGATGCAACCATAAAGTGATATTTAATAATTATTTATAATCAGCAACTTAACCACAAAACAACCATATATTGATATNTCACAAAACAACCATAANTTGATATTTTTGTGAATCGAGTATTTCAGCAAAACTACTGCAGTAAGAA

- Variants of: B1
- PROTOCOL_NOTES: relative integration efficiency (T-LR orientation) vs wild-type transposon end (log2 (normalized fold change)); transposon end mutated: left end; higher = more efficient transposition
- EXPERIMENTAL_CONTEXT: with VchCAST RNA-guided transposition machinery (E. coli BL21(DE3) host, lacZ target)
REPORTED_METRIC: relative integration efficiency (log2)
One number for each entry.

1) CG A91T	-0.0651
2) CG T41A T42A	0.775
3) CG T57G A58C	-1.37

Provide relative integration efficiency (log2) for all items below, preserving their order.
1. TA A70C T76A T86G A96C T110A T113A
2. CG A34C A36G T38C T42C A62G A65G A66C
3. CG G24T T25G

Outgoing:
1: -0.0134; 2: -0.874; 3: -0.649

Provide relative integration efficiency (log2) for all items below, preserving their order.
1. CG C89T
2. CG T76A A77T
3. CG T8A

Outgoing:
0.203
-0.19
-0.491

Provide relative integration efficiency (log2) for all items below, preserving their order.
1. TA A22T G24T T31C A33C T76A T78G C87A T104G T113A
2. TA A22T G24T T31C A33C A70C T76A T86G T104G T113A
3. CG A34C
4. CG C97T
5. CG A67C C68A A69C A70C
6. CG G26T

Outgoing:
-0.379
-0.49
0.459
-0.391
-0.846
-0.577

Provide relative integration efficiency (log2) for all items below, preserving their order.
1. CG A95C
2. CG G117T
3. CG C63A A64C
4. CG A65G
5. TA A16C G24T T32G A33C T76A A77G C87T A96C T110A T113A
6. CG A70T
7. CG A59T

Outgoing:
-0.179
-0.0744
0.557
0.108
-1.08
-0.297
0.107

Provide relative integration efficiency (log2) for all items below, preserving their order.
1. TA A22T G24T T31C A33C A70C T76A T86G T104A T110A T113A
2. CG T28C
3. CG A67G
4. CG T78A T79A G80C A81T
5. CG A93T
6. CG G10T
7. CA G24A T30A T104A T110A T113A
8. CG C49G A50T G51C C52G

Outgoing:
1: -0.292; 2: -0.0735; 3: -0.325; 4: -1.07; 5: -0.975; 6: -1.38; 7: -0.0948; 8: -1.24

Provide relative integration efficiency (log2) for all items below, preserving their order.
1. TA A16C G24T T32G A33C A70C T76A T84A C87A A96C T110A T113A
2. TA A22T G24T T31C A33C A70C T76A T86G A96C T112G T113C
3. CG T108A
4. CG A40C T41G T42G T43G
5. TA A23G G24T A33T A70C T76A T86G T104A T110A T113A
6. CG C87G A88T
7. CG A1T A2T T3A G4C T5A

Outgoing:
1: -0.499; 2: -0.771; 3: -1.1; 4: -0.1; 5: -0.032; 6: 0.294; 7: -0.0748

Provide relative integration efficiency (log2) for all items below, preserving their order.
1. CG C63A
2. CG T105C
3. CG T45A
4. CG G106C A107T T108A A109T
5. TA A22T G24T T31C A33C A70C T76A T84A C87A T104A T110A T113A
6. CG A40T
7. CG A109G
8. CG C94G A95T A96T C97G

Outgoing:
1. 0.438
2. -0.552
3. 0.403
4. -1.44
5. -0.378
6. 0.577
7. -0.737
8. -1.95

Provide relative integration efficiency (log2) for all items below, preserving their order.
1. CG T56C
2. TA A22T G24T T31C A33C A70C T76A T84A C87A A102T T111C T113C
3. CG G4C T5A
4. CA A23G G24T A33T A96C T110A T113A
5. TA A16C G24T T32G A33C T76A T78G C87A A96C T110A T113A
6. CG A77C

Outgoing:
-0.129
-0.102
0.189
-0.448
-0.283
0.611
